tested-target: human thyroid receptor beta ligand-binding domain (LBD) (Homo sapiens, UniProt P10828)
method-summary: TR-FRET thyroid receptor beta coactivator assay (THR biochemical assay, Assay 1)
assay-setup: THR-beta, TR-FRET coactivator assay; read-out: Activity category Assay 1 (EC50, THR-beta agonist)
pEC50: −log10 of the molar value.
value-kind: pEC50

Here is how some compounds turned out for pEC50.
>>> df
                                   compound                             tested_target  value_kind  value_measured
0  Cc1cc(-n2ncc(=O)[nH]c2=O)cc(C)c1Cc1ccc2[nH]cc(C(C)C)c2n1  human thyroid receptor beta ligand-binding domain (LBD) (Homo sapiens, UniProt P10828)       pEC50          > 7.30
1  CO[C@H]1C[C@@H](c2cc(Oc3c(Cl)cc(-n4nc(N)c(=O)[nH]c4=O)cc3Cl)n[nH]c2=O)C1  human thyroid receptor beta ligand-binding domain (LBD) (Homo sapiens, UniProt P10828)       pEC50    4.60 to 6.00
2  Cc1cc2cc(Oc3c(Cl)cc(-n4nc(C#N)c(=O)[nH]c4=O)cc3Cl)ccc2[nH]c1=O  human thyroid receptor beta ligand-binding domain (LBD) (Homo sapiens, UniProt P10828)       pEC50    6.60 to 7.30
3  Cc1cc(-c2cc(Oc3c(Cl)cc(-n4ncc(=O)[nH]c4=O)cc3Cl)n[nH]c2=O)ccn1  human thyroid receptor beta ligand-binding domain (LBD) (Homo sapiens, UniProt P10828)       pEC50    4.60 to 6.00

QUERY: Supply pEC50 value. Item: "Nc1nn(-c2cc(Cl)c(Oc3cc(-c4cccc(OC(F)F)c4)c(=O)[nH]n3)c(Cl)c2)c(=O)[nH]c1=O"
RESULT: > 7.30

QUERY: For the compound "Nc1nn(-c2cc(Cl)c(Oc3cc(-c4ccc5c(c4)CCCO5)c(=O)[nH]n3)c(Cl)c2)c(=O)[nH]c1=O" , report pEC50.
RESULT: 6.60 to 7.30

QUERY: Using the record for CC(C)C1(C)C(=O)Nc2ccc(Oc3c(Cl)cc(-n4nc(N)c(=O)[nH]c4=O)cc3Cl)cc21 (stereo not shown) , state its measured pEC50.
RESULT: > 7.30

* * *

tested-target: human thyroid receptor beta ligand-binding domain (LBD) (Homo sapiens, UniProt P10828)
Construct: purchased Invitrogen
Sequence (P10828 217-461 limits assumed): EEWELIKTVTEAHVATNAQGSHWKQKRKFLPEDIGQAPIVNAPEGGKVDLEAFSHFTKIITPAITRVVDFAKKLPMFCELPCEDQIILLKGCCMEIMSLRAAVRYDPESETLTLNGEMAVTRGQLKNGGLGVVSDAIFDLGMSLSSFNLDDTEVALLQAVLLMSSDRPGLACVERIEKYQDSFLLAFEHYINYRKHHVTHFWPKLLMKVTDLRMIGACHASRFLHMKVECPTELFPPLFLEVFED
method-summary: TR-FRET thyroid receptor beta coactivator assay (THR biochemical assay, Assay 1)
assay-setup: THR-beta, TR-FRET coactivator assay; read-out: Activity category Assay 1 (EC50, THR-beta agonist)
value-kind: EC50

// below: answered molecules
                                   molecule  value_measured
0  Cc1cc(-n2nc(C#N)c(=O)[nH]c2=O)cc(C)c1Cc1ccc2[nH]nc(C(C)C)c2c1         < 50 nM
1  C[C@H]1C[C@H](c2cc(Oc3c(Cl)cc(-n4nc(N)c(=O)[nH]c4=O)cc3Cl)n[nH]c2=O)C1 (single isomer, unassigned)    50 to 250 nM
2  Cc1cc(-n2nc(C#N)c(=O)[nH]c2=O)cc(C)c1Oc1ccc2[nH]cc(C(C)C)c2c1         < 50 nM
3  Cc1cccc(-c2cc(Oc3c(Cl)cc(-n4nc(N)c(=O)[nH]c4=O)cc3Cl)n[nH]c2=O)c1F         < 50 nM
4  Nc1nn(-c2cc(Cl)c(Oc3ccc4c(c3)C3(CCCCC3)C(=O)N4)c(Cl)c2)c(=O)[nH]c1=O         < 50 nM
5  CC(C)c1n[nH]c2nnc(Oc3c(Cl)cc(-n4nc(N)c(=O)[nH]c4=O)cc3Cl)cc12         < 50 nM

QUERY: Answer with reported EC50 of "CC(C)(O)c1cc(Oc2c(Cl)cc(-n3nc(N)c(=O)[nH]c3=O)cc2Cl)n[nH]c1=O"
RESULT: 250 to 1000 nM

Source listed as patent US12180192B2.
